target: HLA-A*03:01; assay: IEDB peptide-MHC binding, purified MHC/direct/fluorescence; filed as Kd, often an IC50 or EC50 that approximates it; bounds were set here for any values at or beyond the usual limits of such assays; conditions: source organism: Salmonella enterica subsp. enterica serovar Typhimurium str. LT2
pKd: −log10 of the molar value.
observation.type: pKd

1) FTGEYLLRL :: ≤ 4.70

---

target: HLA-A*02:06; experiment: IEDB peptide-MHC binding, purified MHC/competitive/radioactivity; filed as Kd, often an IC50 or EC50 that approximates it; bounds were set here for any values at or beyond the usual limits of such assays; details: source organism: Trypanosoma cruzi
pKd: −log10 of the molar value.
Let's look at some sequences and their measured pKd.
observation.type: pKd

1. LLGMWGIAAI :: 8.02
2. LVGLLSNAAS :: 5.88
3. FANYNFTLV :: 11.23

---

molecular target: HLA-A*68:02; assay: IEDB peptide-MHC binding, purified MHC/competitive/fluorescence; bounds were set here for any values at or beyond the usual limits of such assays; details: source organism: Homo sapiens
We begin with a simple list: items and their reported IC50.
observation.type: IC50 (nM)

1. SLMASSPTSI :: 1010
2. YPDPVIKV :: 317

---

Below, each of the sequences is paired with its reported Kd value.
biological target: HLA-B*07:02; assay: IEDB peptide-MHC binding, purified MHC/competitive/radioactivity; filed as Kd, often an IC50 or EC50 that approximates it; bounds were set here for any values at or beyond the usual limits of such assays; settings: source organism: SARS coronavirus Tor2
observation.type: Kd (nM)

1) LPFYSNVTGF :: 563
2) RPNHTIKGSF :: 57.7
3) SPYNSQNAVA :: 59.4
4) SPSGVYQCAM :: 6.09

---

molecular target: HLA-B*35:01; experiment: IEDB peptide-MHC binding, purified MHC/competitive/fluorescence; bounds were set here for any values at or beyond the usual limits of such assays; details: source organism: Homo sapiens
In this section we review reported IC50 values for a set of sequences.
observation.type: IC50

1. SLMASSPTSI :: ≥ 20000 nM
2. YPDPVIKV :: 736 nM

---

molecular target: HLA-A*03:01; assay: IEDB peptide-MHC binding, purified MHC/competitive/fluorescence; filed as Kd, often an IC50 or EC50 that approximates it; bounds were set here for any values at or beyond the usual limits of such assays; settings: source organism: Campylobacter jejuni subsp. jejuni NCTC 11168 = ATCC 700819
observation.type: Kd

1. AELIDSFTW :: ≥ 20 µM

---

target: HLA-A*26:01; experiment: IEDB peptide-MHC binding, purified MHC/competitive/radioactivity; filed as Kd, often an IC50 or EC50 that approximates it; bounds were set here for any values at or beyond the usual limits of such assays; details: source organism: Mammarenavirus guanaritoense
pKd: −log10 of the molar value.
observation.type: pKd

1) FYSEESPTEY :: 5.13

---

biological target: HLA-A*24:02; assay: IEDB peptide-MHC binding, purified MHC/competitive/radioactivity; filed as Kd, often an IC50 or EC50 that approximates it; bounds were set here for any values at or beyond the usual limits of such assays; settings: source organism: Mammarenavirus lassaense
pKd: −log10 of the molar value.
observation.type: pKd

1. HDLMMGYAWI :: ≤ 4.40

---

molecular target: HLA-A*31:01; test: IEDB peptide-MHC binding, purified MHC/direct/fluorescence; filed as Kd, often an IC50 or EC50 that approximates it; bounds were set here for any values at or beyond the usual limits of such assays; conditions: source organism: Corynebacterium efficiens
observation.type: Kd

1. ITWETPMIW :: ≥ 20 µM

---

target: HLA-B*07:02; test: IEDB peptide-MHC binding, purified MHC/competitive/fluorescence; filed as Kd, often an IC50 or EC50 that approximates it; bounds were set here for any values at or beyond the usual limits of such assays; conditions: source organism: Salmonella enterica subsp. enterica serovar Paratyphi B str. SPB7
pKd: −log10 of the molar value.
observation.type: pKd

1) LPLAKPMVI :: 7.20

---

target: HLA-B*15:01; test: IEDB peptide-MHC binding, purified MHC/direct/fluorescence; filed as Kd, often an IC50 or EC50 that approximates it; bounds were set here for any values at or beyond the usual limits of such assays; settings: source organism: Cryptosporidium parvum Iowa II
observation.type: Kd

1. DHIPIINTL :: ≥ 20 µM
2. ILTRLALFF :: ≥ 20 µM

---

molecular target: HLA-A*02:03; test: IEDB peptide-MHC binding, purified MHC/competitive/radioactivity; filed as Kd, often an IC50 or EC50 that approximates it; bounds were set here for any values at or beyond the usual limits of such assays; settings: source organism: Trypanosoma cruzi
pKd: −log10 of the molar value.
observation.type: pKd

1. LVGLLSNAAS :: 6.40
2. LLGMWGIAAI :: 8.50

---

target: HLA-B*27:05; experiment: IEDB peptide-MHC binding, purified MHC/direct/fluorescence; filed as Kd, often an IC50 or EC50 that approximates it; bounds were set here for any values at or beyond the usual limits of such assays; settings: source organism: Campylobacter jejuni
observation.type: Kd

1. SFGAGTLAK :: ≥ 20 µM

---

target: HLA-A*30:01; test: IEDB peptide-MHC binding, purified MHC/direct/fluorescence; filed as Kd, often an IC50 or EC50 that approximates it; bounds were set here for any values at or beyond the usual limits of such assays; conditions: source organism: Entamoeba histolytica HM-1:IMSS
pKd: −log10 of the molar value.
observation.type: pKd

1. ETMKPAAMV :: ≤ 4.70

---

molecular target: HLA-B*44:02; experiment: IEDB peptide-MHC binding, purified MHC/direct/fluorescence; filed as Kd, often an IC50 or EC50 that approximates it; bounds were set here for any values at or beyond the usual limits of such assays; details: source organism: La Crosse virus
pKd: −log10 of the molar value.
observation.type: pKd

1. YRKPSGGVF :: ≤ 4.70

---

Property: pKd; scope: individual sequences
biological target: HLA-A*31:01; assay: IEDB peptide-MHC binding, purified MHC/direct/fluorescence; filed as Kd, often an IC50 or EC50 that approximates it; bounds were set here for any values at or beyond the usual limits of such assays; settings: source organism: Camelpox virus M-96
pKd: −log10 of the molar value.
observation.type: pKd

1. NTDAFSREY :: ≤ 4.70
2. SYVFNFHKY :: ≤ 4.70
3. LEYGANYFL :: ≤ 4.70

---

biological target: HLA-B*07:02; assay: IEDB peptide-MHC binding, purified MHC/direct/fluorescence; filed as Kd, often an IC50 or EC50 that approximates it; bounds were set here for any values at or beyond the usual limits of such assays; details: source organism: Vibrio cholerae
observation.type: Kd (µM)

1. QLQCHQIAI :: 6.71

---

// values below are reported pKd
molecular target: HLA-B*58:01; assay: IEDB peptide-MHC binding, purified MHC/competitive/radioactivity; filed as Kd, often an IC50 or EC50 that approximates it; bounds were set here for any values at or beyond the usual limits of such assays; settings: source organism: Dengue virus 1 Brazil/97-11/1997
pKd: −log10 of the molar value.
observation.type: pKd

1) PSVVETLEQM :: 6.49
2) KTSAGVNMCT :: 5.34

---

molecular target: HLA-A*30:01; assay: IEDB peptide-MHC binding, purified MHC/direct/fluorescence; filed as Kd, often an IC50 or EC50 that approximates it; bounds were set here for any values at or beyond the usual limits of such assays; conditions: source organism: Variola virus
pKd: −log10 of the molar value.
observation.type: pKd

1) RYPGVMYAF :: 5.40

---

molecular target: HLA-A*02:19; assay: IEDB peptide-MHC binding, purified MHC/direct/fluorescence; filed as Kd, often an IC50 or EC50 that approximates it; bounds were set here for any values at or beyond the usual limits of such assays; conditions: source organism: Amur virus
pKd: −log10 of the molar value.
observation.type: pKd

1. TLTRGQNTV :: 6.86

---

molecular target: HLA-A*02:03; test: IEDB peptide-MHC binding, purified MHC/competitive/radioactivity; filed as Kd, often an IC50 or EC50 that approximates it; bounds were set here for any values at or beyond the usual limits of such assays; settings: source organism: Dengue virus 1 Brazil/97-11/1997
pKd: −log10 of the molar value.
The following sequences are shown together with reported pKd values.
observation.type: pKd

1) ALCESITLA :: 7.76
2) IMKDGREIV :: 6.96
3) FLAHAIGTSI :: 7.33

---

biological target: HLA-A*02:16; assay: IEDB peptide-MHC binding, purified MHC/direct/fluorescence; filed as Kd, often an IC50 or EC50 that approximates it; bounds were set here for any values at or beyond the usual limits of such assays; settings: source organism: Salmonella enterica subsp. enterica serovar Typhimurium str. LT2
observation.type: Kd

1. FTGEYLLRL :: ≥ 20 µM
